Form field: PI3KA_Act Ki (one value per entry).
molecular target: truncated PI3Kα (p110α/iSH2 p85α) (Homo sapiens (Human), UniProt P42336); assay: PI3KA_Act fluorescence polarization kinase assay (Ki); assay type: biochemical; conditions: 1 mM ATP
Sequence (P42336 whole entry, the tested form may be a part): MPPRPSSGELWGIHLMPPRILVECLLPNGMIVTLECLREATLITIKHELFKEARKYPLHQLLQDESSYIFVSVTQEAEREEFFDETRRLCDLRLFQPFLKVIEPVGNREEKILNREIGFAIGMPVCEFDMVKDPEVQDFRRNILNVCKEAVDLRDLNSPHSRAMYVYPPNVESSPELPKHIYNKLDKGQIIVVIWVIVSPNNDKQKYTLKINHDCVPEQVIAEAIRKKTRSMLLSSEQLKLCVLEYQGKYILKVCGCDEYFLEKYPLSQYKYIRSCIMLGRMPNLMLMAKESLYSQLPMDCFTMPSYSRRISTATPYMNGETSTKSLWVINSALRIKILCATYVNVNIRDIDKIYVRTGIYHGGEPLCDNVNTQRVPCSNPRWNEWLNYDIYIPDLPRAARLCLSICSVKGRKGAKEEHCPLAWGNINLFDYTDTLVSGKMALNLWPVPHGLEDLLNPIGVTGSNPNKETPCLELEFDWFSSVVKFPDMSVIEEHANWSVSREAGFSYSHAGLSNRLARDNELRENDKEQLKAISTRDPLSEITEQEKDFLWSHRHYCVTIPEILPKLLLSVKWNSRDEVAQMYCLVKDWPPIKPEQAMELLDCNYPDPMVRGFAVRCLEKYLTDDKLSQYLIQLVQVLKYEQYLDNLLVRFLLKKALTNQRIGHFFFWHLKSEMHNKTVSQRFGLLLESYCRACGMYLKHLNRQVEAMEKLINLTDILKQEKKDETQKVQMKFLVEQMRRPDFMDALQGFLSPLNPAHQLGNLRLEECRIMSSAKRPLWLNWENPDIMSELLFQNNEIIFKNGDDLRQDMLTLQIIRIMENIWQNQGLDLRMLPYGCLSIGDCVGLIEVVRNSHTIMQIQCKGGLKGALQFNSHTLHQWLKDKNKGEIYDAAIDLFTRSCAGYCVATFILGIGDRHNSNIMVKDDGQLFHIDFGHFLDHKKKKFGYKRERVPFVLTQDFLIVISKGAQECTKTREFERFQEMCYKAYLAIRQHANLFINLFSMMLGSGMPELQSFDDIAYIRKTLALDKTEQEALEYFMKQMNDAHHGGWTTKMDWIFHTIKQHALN
EXPERIMENTAL READOUT: PI3KA_Act Ki (nM)

{"COMPOUND": "C[C@@H]1COCCN1c1nc(-c2cnc(N)nc2)c2c(n1)N([C@@]1(C)CCN(S(C)(=O)=O)C1)CC2 [Example 231]", "EXPERIMENTAL READOUT": "PI3KA_Act Ki", "LIMIT SIGN": "=", "MEAS VALUE": 1.493}
{"COMPOUND": "CP(C)(=O)N1CC[C@@H](N2CCc3c(-c4cnc(N)nc4)nc(N4CCOCC4)nc32)C1 [Example 180]", "EXPERIMENTAL READOUT": "PI3KA_Act Ki", "LIMIT SIGN": "=", "MEAS VALUE": 1.759}
{"COMPOUND": "C[C@H]1COCCN1c1nc(-c2cnc(N)nc2)c2c(n1)N([C@@]1(C)CCN(C(=O)C3(N)CC3)C1)CC2.Cl [Example 492]", "EXPERIMENTAL READOUT": "PI3KA_Act Ki", "LIMIT SIGN": "=", "MEAS VALUE": 0.101}
{"COMPOUND": "C[C@@H](O)COC(=O)N1CC(N2CCc3c(-c4cnc(N)nc4)nc(N4CCOCC4)nc32)C1 [Example 185]", "EXPERIMENTAL READOUT": "PI3KA_Act Ki", "LIMIT SIGN": "=", "MEAS VALUE": 0.182}
{"COMPOUND": "CP(C)(=O)N1CC[C@H](N2CCc3c(-c4cnc(N)nc4)nc(N4CCOCC4)nc32)C1 [Example 181]", "EXPERIMENTAL READOUT": "PI3KA_Act Ki", "LIMIT SIGN": "=", "MEAS VALUE": 0.296}
{"COMPOUND": "C[C@H]1COCCN1c1nc(-c2cnc(N)nc2)c2c(n1)N(C1(C)CCN(C(=O)OC(C)(C)C)CC1)CC2 [Example 519]", "EXPERIMENTAL READOUT": "PI3KA_Act Ki", "LIMIT SIGN": "=", "MEAS VALUE": 0.036}
{"COMPOUND": "CNC(=O)CN1CC[C@@](C)(N2CCc3c(-c4cnc(N)nc4)nc(N4CCOCC4)nc32)C1 [Example 400]", "EXPERIMENTAL READOUT": "PI3KA_Act Ki", "LIMIT SIGN": "=", "MEAS VALUE": 0.781}
{"COMPOUND": "CC(=O)N1CC(C)(N2CCc3c(-c4cnc(N)nc4)nc(N4CCOC[C@@H]4C)nc32)C1 [Example 452]", "EXPERIMENTAL READOUT": "PI3KA_Act Ki", "LIMIT SIGN": "=", "MEAS VALUE": 0.090}
{"COMPOUND": "C[C@]1(N2CCc3c(-c4cnc(N)nc4)nc(N4CCOCC4)nc32)CCN(C(=O)[C@@H]2CC2(F)F)C1 [Example 337]", "EXPERIMENTAL READOUT": "PI3KA_Act Ki", "LIMIT SIGN": "<", "MEAS VALUE": 0.018}
{"COMPOUND": "CC(C)(N)CC(=O)N1CC[C@](C)(N2CCc3c(-c4cnc(N)nc4)nc(N4CCOCC4)nc32)C1.Cl [Example 281]", "EXPERIMENTAL READOUT": "PI3KA_Act Ki", "LIMIT SIGN": "=", "MEAS VALUE": 0.024}
{"COMPOUND": "CCOC(=O)C(C)(C)C(=O)N1CC[C@](C)(N2CCc3c(-c4cnc(N)nc4)nc(N4CCOCC4)nc32)C1 [Example 322]", "EXPERIMENTAL READOUT": "PI3KA_Act Ki", "LIMIT SIGN": "<", "MEAS VALUE": 0.018}
{"COMPOUND": "CN1CCC(N2CC[C@](C)(N3CCc4c(-c5cnc(N)nc5)nc(N5CCOCC5)nc43)C2)C1=O (single isomer, unassigned) [Example 426]", "EXPERIMENTAL READOUT": "PI3KA_Act Ki", "LIMIT SIGN": "=", "MEAS VALUE": 0.051}
{"COMPOUND": "C[C@]1(N2CCc3c(-c4cnc(N)nc4)nc(N4CCOCC4)nc32)CCN(C(=O)[C@H]2CCCO2)C1 [Example 372]", "EXPERIMENTAL READOUT": "PI3KA_Act Ki", "LIMIT SIGN": "=", "MEAS VALUE": 0.040}
{"COMPOUND": "CNC(=O)N1CC(C)(N2CCc3c(-c4cnc(N)nc4)nc(N4CCOC[C@@H]4C)nc32)C1 [Example 462]", "EXPERIMENTAL READOUT": "PI3KA_Act Ki", "LIMIT SIGN": "=", "MEAS VALUE": 0.057}
{"COMPOUND": "CS(=O)(=O)N1C[C@@H]2C[C@]2(N2CCc3c(-c4cnc(N)nc4)nc(N4CCOCC4)nc32)C1 [Example 437]", "EXPERIMENTAL READOUT": "PI3KA_Act Ki", "LIMIT SIGN": "=", "MEAS VALUE": 0.603}

src = patent US9260439B2
